B1: VAMP4 (parent)
chain: FLRGPSGPRFGPRNDKIKHVQNQV

- Variants of: B1
- run description: protein stability index of a GFP-peptide fusion (GPS, HEK-293T) (PSI 1-6); higher = more stable;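 also: lentivirally expressed fusions sorted by FACS into six bins by GFP to DsRed ratio, PSI derived from sequencing read proportions per bin multiplied by bin number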
- experimental setup: c terminus: a fixed tail appended
The variants listed here are annotated with their protein stability index.
measurement label: protein stability index

INSERT INTO results (variant_name, numeric_result) VALUES
  ('R13A', 2.32),
  ('V24T', 3.08),
  ('G4A', 3.07),
  ('G4L', 2.59),
  ('R9K', 3.87),
  ('G4P', 3.12),
  ('P5Y', 2.04),
  ('P8S', 2.58),
  ('L2W', 2.9),
  ('S6M', 2.86),
  ('P12H', 2.75),
  ('K16F', 2.25),
  ('P12G', 2.99),
  ('D15I', 3.2),
  ('R3E', 3.56),
  ('R3Y', 1.99),
  ('D15M', 2.05),
  ('P8V', 2.54),
  ('K16E', 3.18),
  ('G7M', 2.24),
  ('V20N', 2.91),
  ('G4W', 1.96),
  ('G7N', 2.74),
  ('N14I', 2.2),
  ('R9E', 3),
  ('Q21L', 1.75),
  ('P5A', 2.79),
  ('G7Y', 1.96),
  ('G4V', 2.6),
  ('Q21H', 3.2),
  ('R13T', 2.8),
  ('S6W', 1.29),
  ('Q21F', 2.42),
  ('F10Y', 2.27),
  ('I17W', 1.53),
  ('P12Y', 2.75),
  ('Q21M', 1.85),
  ('F10D', 3.15),
  ('Q21K', 2.81),
  ('G11R', 2.34),
  ('V20L', 2.9),
  ('V24R', 3),
  ('L2A', 2.48),
  ('N22W', 1.42),
  ('H19K', 2.35),
  ('P12N', 3.12);

From: the supplement of paper PMC10567573
